assay: Measurement of accumulated amounts of 211At-labeled compounds in PANC1 tumor-bearing mice; type: in vivo, human (PANC1) in Balb/c-nu/nu mice; conditions: tumor, iv, 0.1 MBq/animal; 10 minutes after administration, 0.1 MBq/0.2 mL per mouse, tail vein; read-out: tumor accumulation
MEASUREMENT_LABEL: tissue uptake at 10 min

# example entries with known answers
compound="COc1ccc(C[C@](C)(N)C(=O)O)cc1[At] [^211At-AAMT-OMe]" measurement_label="tissue uptake at 10 min" recorded_result="2.59 %ID/g"
compound="CCOc1ccc(C[C@](C)(N)C(=O)O)cc1[At] [^211At-AAMT-OEt]" measurement_label="tissue uptake at 10 min" recorded_result="4.21 %ID/g"
compound="C[C@](N)(Cc1ccc(O)c([At])c1)C(=O)O [^211At-AAMT, astato(^211At)-α-methyl-L-tyrosine, reference compound]" measurement_label="tissue uptake at 10 min" recorded_result="0.29 %ID/g"
compound="COc1cc(C[C@](C)(N)C(=O)O)ccc1[At] [^211At-AAMPhe-OMe]" measurement_label="tissue uptake at 10 min" recorded_result="3.77 %ID/g"

// moving on: another record for tissue uptake at 10 min
Please fill in: tissue uptake at 10 min reported for CCCOc1ccc(C[C@](C)(N)C(=O)O)cc1[At] [^211At-AAMT-OPr] = 5.91 %ID/g

----------
experiment: Measurement of accumulated amounts of 211At-labeled compounds in PANC1 tumor-bearing mice; format: in vivo, human (PANC1) in Balb/c-nu/nu mice; conditions: tumor, iv, 0.1 MBq/animal; 1 hour after administration, 0.1 MBq/0.2 mL per mouse, tail vein; read-out: tumor accumulation
Label Satisfied when tissue uptake at 1 h is at or above 4 %ID/g; anything below gets Not satisfied.

molecule="C[C@](N)(Cc1ccc(O)c([At])c1)C(=O)O [^211At-AAMT, astato(^211At)-α-methyl-L-tyrosine, reference compound]" qualitative_label="Not satisfied"
molecule="COc1cc(C[C@](C)(N)C(=O)O)ccc1[At] [^211At-AAMPhe-OMe]" qualitative_label=Satisfied
molecule="CCCOc1ccc(C[C@](C)(N)C(=O)O)cc1[At] [^211At-AAMT-OPr]" qualitative_label=Satisfied

Ask: Has COc1ccc(C[C@](C)(N)C(=O)O)cc1[At] [^211At-AAMT-OMe] a recorded tissue uptake at 1 h greater than or equal to 4 %ID/g?
Result: Not satisfied

Ask: Has CCOc1ccc(C[C@](C)(N)C(=O)O)cc1[At] [^211At-AAMT-OEt] a recorded tissue uptake at 1 h greater than or equal to 4 %ID/g?
Result: Not satisfied

From: patent US20260337125A1
